study.system: KAT5 (Homo sapiens)
Sequence (Q92993 with tags, fused parts or gaps): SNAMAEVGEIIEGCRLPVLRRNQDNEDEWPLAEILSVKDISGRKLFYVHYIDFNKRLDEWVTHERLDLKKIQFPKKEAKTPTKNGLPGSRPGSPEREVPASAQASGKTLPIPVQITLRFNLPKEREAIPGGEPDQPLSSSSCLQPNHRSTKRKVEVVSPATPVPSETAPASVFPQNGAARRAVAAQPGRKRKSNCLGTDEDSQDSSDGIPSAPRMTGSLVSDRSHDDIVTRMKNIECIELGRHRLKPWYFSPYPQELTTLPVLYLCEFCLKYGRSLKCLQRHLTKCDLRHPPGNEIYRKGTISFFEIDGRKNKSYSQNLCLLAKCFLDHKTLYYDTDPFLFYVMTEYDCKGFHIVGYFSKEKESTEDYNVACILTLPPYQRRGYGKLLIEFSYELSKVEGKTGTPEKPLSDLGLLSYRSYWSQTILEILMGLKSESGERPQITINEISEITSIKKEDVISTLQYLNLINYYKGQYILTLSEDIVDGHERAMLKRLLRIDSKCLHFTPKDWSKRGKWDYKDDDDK
pIC50: −log10 of the molar value.
measured.parameter: pIC50

Item: "COc1cccc(-c2cc(C)c(F)c(C(=O)NNS(=O)(=O)c3ccccc3)c2)c1" | System: KAT5 (Homo sapiens) | pIC50: < 4.00

pIC50 for KAT5 (Homo sapiens) with input "Cc1cccc(S(=O)(=O)NNC(=O)c2cccc(-c3ccccc3)c2F)c1" equals < 4.00

With KAT5 (Homo sapiens) as the test system, "O=C(NNS(=O)(=O)C1CCCCC1)c1cc(CO)cc(Cl)c1F" showed pIC50 of < 4.00

The compound "COCCOc1cccc(-c2cc(C)c(F)c(C(=O)NNS(=O)(=O)C3CCCCC3)c2)c1" , tested on KAT5 (Homo sapiens), showed pIC50 of 4.30 to 5.00
